// values below are reported relative integration efficiency (log2)
B1: library; a variant is named by its letters at N, in order (parent)
chain: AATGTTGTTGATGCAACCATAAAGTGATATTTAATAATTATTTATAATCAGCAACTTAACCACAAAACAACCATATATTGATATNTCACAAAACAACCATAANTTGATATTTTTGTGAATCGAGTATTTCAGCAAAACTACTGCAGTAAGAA

# Variants of: B1
# assay notes: relative integration efficiency (T-LR orientation) vs wild-type transposon end (log2 (normalized fold change)); transposon end mutated: left end; higher = more efficient transposition
# run conditions: with VchCAST RNA-guided transposition machinery (E. coli BL21(DE3) host, lacZ target)
readout kind: relative integration efficiency (log2)

1. CG G26C A27T: -3.33
2. CG T116G G117T A118C A119C: -0.21
3. CG A34T T35A A36T A37T: 0.329
4. CG A34T T35A: 0.192
5. TA T76A T78G C87A A96C T110A T113A: -0.0777
6. CG T108A A109T T110A T111A: -1.21
7. CG A54T C55G T56A T57A: -0.43
8. CG A22T A23T G24C T25A: -1.61
9. TA A16C G24T T32G A33C A70C T76A T86G T104G T113A: -0.573
10. GG T30A T31A T32A A33T T84A T86A C87G T110A T111A T112A T113A: -1.77
11. CG G117T A118C A119C T120G: 0.0571
12. CG A75C T76G: -2.22
13. TA A70C T76A T84A C87A A96C T110A T113A: 0.233
14. CG T12A G13A: -0.256
15. CG T12C: -0.943
16. CG G13T C14A: -1.46
17. CG T112G T113G: -0.314
18. GG A83T T84A T86A: -0.405
19. CG T5A: -0.149
20. CG A123C G124T T125G: -0.277
21. CA A16C G24T T32G A33C T104G T113A: -0.783
22. CG C49A A50C: -0.934
23. CG A33G: 0.00747
24. GG: -0.397
25. CG T35G A36C: -0.467
